biological target: T1, human CGRP receptor (human CRLR / human RAMP1 heterodimer) (human, UniProt Q16602 23-461; O60894 27-148); assay: yeast-displayed Fab, FACS, detergent-solubilized lysate of human CGRP receptor-expressing cells vs blank cells
T1 construct: Full-length receptor: endogenous on SK-N-MC (HTB-10) cells in the cAMP assay; also called hCGRP receptor on SK-N-MC (HTB-10) cells; Human CGRP Receptor/AMID detergent-solubilized cell lysate
T1 sequence (Q16602 23-461 limits assumed, chain 1 of 2): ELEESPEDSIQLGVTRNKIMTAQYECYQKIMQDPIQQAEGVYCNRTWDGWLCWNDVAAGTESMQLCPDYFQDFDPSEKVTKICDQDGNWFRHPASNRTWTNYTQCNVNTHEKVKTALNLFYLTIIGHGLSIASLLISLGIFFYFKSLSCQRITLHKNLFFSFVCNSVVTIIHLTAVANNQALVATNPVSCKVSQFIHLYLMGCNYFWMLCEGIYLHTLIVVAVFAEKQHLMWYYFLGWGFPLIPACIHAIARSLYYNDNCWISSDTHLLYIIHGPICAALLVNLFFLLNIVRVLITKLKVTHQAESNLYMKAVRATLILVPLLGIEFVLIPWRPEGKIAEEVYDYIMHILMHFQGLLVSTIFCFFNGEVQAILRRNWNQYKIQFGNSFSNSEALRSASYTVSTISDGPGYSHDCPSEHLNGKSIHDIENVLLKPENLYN
T1 sequence (O60894 27-148 limits assumed, chain 2 of 2): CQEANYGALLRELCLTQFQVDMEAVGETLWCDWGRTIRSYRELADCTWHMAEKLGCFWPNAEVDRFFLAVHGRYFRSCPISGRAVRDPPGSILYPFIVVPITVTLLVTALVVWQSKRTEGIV
Parameter: Mutant vs. 4E4.2 Parent Specific Binding Ratio. Scope: all listed entries.
Measured parameter: Mutant vs. 4E4.2 Parent Specific Binding Ratio (fold)

- anti-CGRP receptor variant 10, yeast-displayed Fab (Fab, V domains shown, also called Variant Ab ID 10) VH: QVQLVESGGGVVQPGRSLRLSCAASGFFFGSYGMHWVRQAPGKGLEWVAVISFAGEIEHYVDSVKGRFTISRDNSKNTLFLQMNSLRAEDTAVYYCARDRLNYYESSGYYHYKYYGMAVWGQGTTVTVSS VL: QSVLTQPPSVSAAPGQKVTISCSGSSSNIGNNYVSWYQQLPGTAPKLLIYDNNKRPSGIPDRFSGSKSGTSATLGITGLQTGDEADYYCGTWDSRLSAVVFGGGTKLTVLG: 2.6
- anti-CGRP receptor variant 08, yeast-displayed Fab (Fab, V domains shown, also called Variant Ab ID 08) VH: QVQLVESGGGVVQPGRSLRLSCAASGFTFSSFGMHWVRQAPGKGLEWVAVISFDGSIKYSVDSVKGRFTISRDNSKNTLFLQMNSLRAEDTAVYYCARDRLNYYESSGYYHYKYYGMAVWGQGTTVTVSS VL: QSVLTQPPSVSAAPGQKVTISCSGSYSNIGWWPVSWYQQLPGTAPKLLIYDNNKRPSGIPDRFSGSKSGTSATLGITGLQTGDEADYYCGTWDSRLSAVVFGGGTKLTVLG: 2.3
- anti-CGRP receptor variant 05, yeast-displayed Fab (Fab, V domains shown, also called Variant Ab ID 05) VH: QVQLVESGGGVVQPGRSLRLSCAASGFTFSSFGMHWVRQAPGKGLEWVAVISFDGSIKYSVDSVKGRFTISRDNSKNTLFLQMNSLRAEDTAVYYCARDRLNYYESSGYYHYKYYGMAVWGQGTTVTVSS VL: QSVLTQPPSVSAAPGQKVTISCSGSFSNIGRSTVSWYQQLPGTAPKLLIYDNRWRAGGIPDRFSGSKSGTSATLGITGLQTGDEADYYCGTWDYQWKAVVFGGGTKLTVLG: 3.1
